- ASSAYED_SYSTEM: human PAH with the R408W mutation (Homo sapiens, UniProt P00439, R408W)
- Construct: expressed in transfected cells
- Sequence (P00439 1-452 R408W): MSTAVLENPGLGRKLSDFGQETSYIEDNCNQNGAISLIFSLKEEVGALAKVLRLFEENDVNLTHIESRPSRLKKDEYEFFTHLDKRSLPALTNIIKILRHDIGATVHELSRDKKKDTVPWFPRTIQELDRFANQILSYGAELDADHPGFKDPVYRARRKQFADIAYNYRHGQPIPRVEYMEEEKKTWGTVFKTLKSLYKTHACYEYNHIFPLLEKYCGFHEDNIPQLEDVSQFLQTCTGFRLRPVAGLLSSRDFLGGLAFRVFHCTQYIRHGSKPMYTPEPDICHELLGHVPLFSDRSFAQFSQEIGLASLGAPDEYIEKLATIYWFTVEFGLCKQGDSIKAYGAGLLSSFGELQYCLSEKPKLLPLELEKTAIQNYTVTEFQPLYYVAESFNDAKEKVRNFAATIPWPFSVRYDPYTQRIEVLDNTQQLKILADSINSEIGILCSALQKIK
- TEST_NAME: Cell Based Phenylalanine Flux Assay
- CONDITION_DETAILS: A375 cells expressing human PAH R408W; 24 hrs compound incubation; 13C-Tyrosine by LC-MS; average where tested multiple times; read-out: AC50
Reported AC50 values for the following compounds.

### Prompt What AC50 appears in the records for this compound with human PAH with the R408W mutation (Homo sapiens, UniProt P00439, R408W)? CC(C)c1cccn2nc([C@@H]3c4nc[nH]c4CCN3C(=O)c3nnc(-c4cnccn4)o3)cc12 [Example 1934]
### Response < 0.5 µM

### Prompt What AC50 appears in the records for this compound with human PAH with the R408W mutation (Homo sapiens, UniProt P00439, R408W)? CC(C)(O)c1nc(C(F)F)c(C(=O)N2CCc3[nH]cnc3[C@H]2c2cc3cc(C(F)(F)F)ccn3n2)o1 [Example 2406]
### Response < 0.5 µM

----------
Reported AC50 values for the following compounds.
- ASSAYED_SYSTEM: human PAH with the R408W mutation (Homo sapiens, UniProt P00439, R408W)
- Construct: expressed in transfected cells
- Sequence (P00439 1-452 R408W): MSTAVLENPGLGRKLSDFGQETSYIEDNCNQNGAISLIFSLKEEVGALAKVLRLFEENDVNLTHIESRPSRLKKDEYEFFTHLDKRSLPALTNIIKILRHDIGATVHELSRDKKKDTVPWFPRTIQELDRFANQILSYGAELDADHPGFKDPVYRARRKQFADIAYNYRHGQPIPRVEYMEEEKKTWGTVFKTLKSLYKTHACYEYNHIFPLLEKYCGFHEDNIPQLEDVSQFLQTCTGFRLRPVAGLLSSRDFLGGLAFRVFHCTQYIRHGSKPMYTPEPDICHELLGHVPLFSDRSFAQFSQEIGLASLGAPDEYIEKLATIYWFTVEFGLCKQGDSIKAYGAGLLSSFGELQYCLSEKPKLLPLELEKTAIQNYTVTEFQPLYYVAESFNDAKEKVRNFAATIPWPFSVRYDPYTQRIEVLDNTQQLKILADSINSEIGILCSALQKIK
- TEST_NAME: Cell Based Phenylalanine Flux Assay;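 also: after compound treatment, cells received sepiapterin plus isotope-labelled Phenylalanine for 4 hours, then labelled Tyrosine in the medium was quantified, 10-point 2-fold dilution series run in duplicate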
- CONDITION_DETAILS: A375 cells expressing human PAH R408W; 24 hrs compound incubation; 13C-Tyrosine by LC-MS; average where tested multiple times; read-out: AC50

Consider the reported AC50 for these compounds:
O=C(c1cnc(C2CC2)o1)N1CCc2[nH]cnc2[C@H]1c1cc2c(C(F)F)cccn2n1    < 0.5 µM
CC(C)c1cccn2nc([C@@H]3c4nc[nH]c4CCN3c3nnc(-c4ncccc4F)o3)cc12    0.5 to 1 µM

### Prompt I'd like to know its AC50. The compound in question is FC(F)(F)c1ccc(N2CCc3[nH]cnc3[C@H]2c2cc3ccccn3n2)nc1
### Response < 0.5 µM

### Prompt I'd like to know its AC50. The compound in question is Cc1cccc2cc([C@@H]3c4nc[nH]c4CCN3c3nnc(-c4ccc(F)cc4)o3)nn12
### Response < 0.5 µM

### Prompt I'd like to know its AC50. The compound in question is O=C(c1ocnc1C1CC1)N1CCc2[nH]cnc2[C@@H]1c1cc2c(F)cccn2n1
### Response 1 to 5 µM

### Prompt I'd like to know its AC50. The compound in question is FC(F)Oc1cccn2nc([C@H]3c4nc[nH]c4CCN3c3ncccn3)cc12
### Response 1 to 5 µM

### Prompt I'd like to know its AC50. The compound in question is Fc1cccn2nc([C@H]3c4nc[nH]c4CCN3c3nnc(-c4ccncn4)o3)cc12
### Response > 5 µM

### Prompt I'd like to know its AC50. The compound in question is Cc1cccnc1-c1nnc(N2CCc3[nH]cnc3[C@@H]2c2cc3c(C(F)F)cccn3n2)o1
### Response > 5 µM
